- STUDY_SYSTEM: T1, RBFOX1 RRM RbFoxmut (Fox-RRM*) (Homo sapiens, UniProt Q9NWB1 109-208, R118D;E147R;N151S;E152T)
- T1 sequence: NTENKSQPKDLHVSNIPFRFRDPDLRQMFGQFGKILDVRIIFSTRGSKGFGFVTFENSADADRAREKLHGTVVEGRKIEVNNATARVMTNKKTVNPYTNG
- ASSAY_DETAILS: EMSA; HiTS-Eq, 1 nM pool, 10 min; buffer printed only for the single-RNA assays: 10 mM Tris pH 7.5, 150 mM NaCl, 3.4 mM EDTA, 0.001% NP-40, 30 C
- CONDITION_CONTEXT: tags: His6 N-terminal (pET28a); label: 5' 32P
The full ranking holds about 16,000 sequences; the median of “ka relative to ugcaugu” is about 0.096, and the highest 2% start at about 0.35. Many of the other results were omitted from the sample, so the highest values are more common in it than they were.
Consider the following binders and their measured binding signal readings.

[[record]]
binder = "UGGACUG (DNA:RNA) RNA: GGGAGACCGGAAUUCAGAUUGUCCUGGACUGUUAAAUCCCGUCGUAGCCACCA DNA 1: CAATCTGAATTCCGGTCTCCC DNA 2: TGGTGGCTACGACGGGATT"
result_value = "0.418 KA relative to UGCAUGU"

[[record]]
binder = "UGGAGUG (DNA:RNA) RNA: GGGAGACCGGAAUUCAGAUUGUCCUGGAGUGUUAAAUCCCGUCGUAGCCACCA DNA 1: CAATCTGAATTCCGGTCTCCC DNA 2: TGGTGGCTACGACGGGATT"
result_value = "0.45 KA relative to UGCAUGU"

[[record]]
binder = "UGGAUCG (DNA:RNA) RNA: GGGAGACCGGAAUUCAGAUUGUCCUGGAUCGUUAAAUCCCGUCGUAGCCACCA DNA 1: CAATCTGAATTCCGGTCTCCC DNA 2: TGGTGGCTACGACGGGATT"
result_value = "0.597 KA relative to UGCAUGU"


We next turn to a different binder, shown below.
Request the reported binding signal associated with CGGAGUG (DNA:RNA) RNA: GGGAGACCGGAAUUCAGAUUGUCCCGGAGUGUUAAAUCCCGUCGUAGCCACCA DNA 1: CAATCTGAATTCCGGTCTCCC DNA 2: TGGTGGCTACGACGGGATT
0.198 KA relative to UGCAUGU
